# target: human SMG-1 (hSMG-1) (Homo sapiens, UniProt Q96Q15)
# Sequence (Q96Q15 whole entry): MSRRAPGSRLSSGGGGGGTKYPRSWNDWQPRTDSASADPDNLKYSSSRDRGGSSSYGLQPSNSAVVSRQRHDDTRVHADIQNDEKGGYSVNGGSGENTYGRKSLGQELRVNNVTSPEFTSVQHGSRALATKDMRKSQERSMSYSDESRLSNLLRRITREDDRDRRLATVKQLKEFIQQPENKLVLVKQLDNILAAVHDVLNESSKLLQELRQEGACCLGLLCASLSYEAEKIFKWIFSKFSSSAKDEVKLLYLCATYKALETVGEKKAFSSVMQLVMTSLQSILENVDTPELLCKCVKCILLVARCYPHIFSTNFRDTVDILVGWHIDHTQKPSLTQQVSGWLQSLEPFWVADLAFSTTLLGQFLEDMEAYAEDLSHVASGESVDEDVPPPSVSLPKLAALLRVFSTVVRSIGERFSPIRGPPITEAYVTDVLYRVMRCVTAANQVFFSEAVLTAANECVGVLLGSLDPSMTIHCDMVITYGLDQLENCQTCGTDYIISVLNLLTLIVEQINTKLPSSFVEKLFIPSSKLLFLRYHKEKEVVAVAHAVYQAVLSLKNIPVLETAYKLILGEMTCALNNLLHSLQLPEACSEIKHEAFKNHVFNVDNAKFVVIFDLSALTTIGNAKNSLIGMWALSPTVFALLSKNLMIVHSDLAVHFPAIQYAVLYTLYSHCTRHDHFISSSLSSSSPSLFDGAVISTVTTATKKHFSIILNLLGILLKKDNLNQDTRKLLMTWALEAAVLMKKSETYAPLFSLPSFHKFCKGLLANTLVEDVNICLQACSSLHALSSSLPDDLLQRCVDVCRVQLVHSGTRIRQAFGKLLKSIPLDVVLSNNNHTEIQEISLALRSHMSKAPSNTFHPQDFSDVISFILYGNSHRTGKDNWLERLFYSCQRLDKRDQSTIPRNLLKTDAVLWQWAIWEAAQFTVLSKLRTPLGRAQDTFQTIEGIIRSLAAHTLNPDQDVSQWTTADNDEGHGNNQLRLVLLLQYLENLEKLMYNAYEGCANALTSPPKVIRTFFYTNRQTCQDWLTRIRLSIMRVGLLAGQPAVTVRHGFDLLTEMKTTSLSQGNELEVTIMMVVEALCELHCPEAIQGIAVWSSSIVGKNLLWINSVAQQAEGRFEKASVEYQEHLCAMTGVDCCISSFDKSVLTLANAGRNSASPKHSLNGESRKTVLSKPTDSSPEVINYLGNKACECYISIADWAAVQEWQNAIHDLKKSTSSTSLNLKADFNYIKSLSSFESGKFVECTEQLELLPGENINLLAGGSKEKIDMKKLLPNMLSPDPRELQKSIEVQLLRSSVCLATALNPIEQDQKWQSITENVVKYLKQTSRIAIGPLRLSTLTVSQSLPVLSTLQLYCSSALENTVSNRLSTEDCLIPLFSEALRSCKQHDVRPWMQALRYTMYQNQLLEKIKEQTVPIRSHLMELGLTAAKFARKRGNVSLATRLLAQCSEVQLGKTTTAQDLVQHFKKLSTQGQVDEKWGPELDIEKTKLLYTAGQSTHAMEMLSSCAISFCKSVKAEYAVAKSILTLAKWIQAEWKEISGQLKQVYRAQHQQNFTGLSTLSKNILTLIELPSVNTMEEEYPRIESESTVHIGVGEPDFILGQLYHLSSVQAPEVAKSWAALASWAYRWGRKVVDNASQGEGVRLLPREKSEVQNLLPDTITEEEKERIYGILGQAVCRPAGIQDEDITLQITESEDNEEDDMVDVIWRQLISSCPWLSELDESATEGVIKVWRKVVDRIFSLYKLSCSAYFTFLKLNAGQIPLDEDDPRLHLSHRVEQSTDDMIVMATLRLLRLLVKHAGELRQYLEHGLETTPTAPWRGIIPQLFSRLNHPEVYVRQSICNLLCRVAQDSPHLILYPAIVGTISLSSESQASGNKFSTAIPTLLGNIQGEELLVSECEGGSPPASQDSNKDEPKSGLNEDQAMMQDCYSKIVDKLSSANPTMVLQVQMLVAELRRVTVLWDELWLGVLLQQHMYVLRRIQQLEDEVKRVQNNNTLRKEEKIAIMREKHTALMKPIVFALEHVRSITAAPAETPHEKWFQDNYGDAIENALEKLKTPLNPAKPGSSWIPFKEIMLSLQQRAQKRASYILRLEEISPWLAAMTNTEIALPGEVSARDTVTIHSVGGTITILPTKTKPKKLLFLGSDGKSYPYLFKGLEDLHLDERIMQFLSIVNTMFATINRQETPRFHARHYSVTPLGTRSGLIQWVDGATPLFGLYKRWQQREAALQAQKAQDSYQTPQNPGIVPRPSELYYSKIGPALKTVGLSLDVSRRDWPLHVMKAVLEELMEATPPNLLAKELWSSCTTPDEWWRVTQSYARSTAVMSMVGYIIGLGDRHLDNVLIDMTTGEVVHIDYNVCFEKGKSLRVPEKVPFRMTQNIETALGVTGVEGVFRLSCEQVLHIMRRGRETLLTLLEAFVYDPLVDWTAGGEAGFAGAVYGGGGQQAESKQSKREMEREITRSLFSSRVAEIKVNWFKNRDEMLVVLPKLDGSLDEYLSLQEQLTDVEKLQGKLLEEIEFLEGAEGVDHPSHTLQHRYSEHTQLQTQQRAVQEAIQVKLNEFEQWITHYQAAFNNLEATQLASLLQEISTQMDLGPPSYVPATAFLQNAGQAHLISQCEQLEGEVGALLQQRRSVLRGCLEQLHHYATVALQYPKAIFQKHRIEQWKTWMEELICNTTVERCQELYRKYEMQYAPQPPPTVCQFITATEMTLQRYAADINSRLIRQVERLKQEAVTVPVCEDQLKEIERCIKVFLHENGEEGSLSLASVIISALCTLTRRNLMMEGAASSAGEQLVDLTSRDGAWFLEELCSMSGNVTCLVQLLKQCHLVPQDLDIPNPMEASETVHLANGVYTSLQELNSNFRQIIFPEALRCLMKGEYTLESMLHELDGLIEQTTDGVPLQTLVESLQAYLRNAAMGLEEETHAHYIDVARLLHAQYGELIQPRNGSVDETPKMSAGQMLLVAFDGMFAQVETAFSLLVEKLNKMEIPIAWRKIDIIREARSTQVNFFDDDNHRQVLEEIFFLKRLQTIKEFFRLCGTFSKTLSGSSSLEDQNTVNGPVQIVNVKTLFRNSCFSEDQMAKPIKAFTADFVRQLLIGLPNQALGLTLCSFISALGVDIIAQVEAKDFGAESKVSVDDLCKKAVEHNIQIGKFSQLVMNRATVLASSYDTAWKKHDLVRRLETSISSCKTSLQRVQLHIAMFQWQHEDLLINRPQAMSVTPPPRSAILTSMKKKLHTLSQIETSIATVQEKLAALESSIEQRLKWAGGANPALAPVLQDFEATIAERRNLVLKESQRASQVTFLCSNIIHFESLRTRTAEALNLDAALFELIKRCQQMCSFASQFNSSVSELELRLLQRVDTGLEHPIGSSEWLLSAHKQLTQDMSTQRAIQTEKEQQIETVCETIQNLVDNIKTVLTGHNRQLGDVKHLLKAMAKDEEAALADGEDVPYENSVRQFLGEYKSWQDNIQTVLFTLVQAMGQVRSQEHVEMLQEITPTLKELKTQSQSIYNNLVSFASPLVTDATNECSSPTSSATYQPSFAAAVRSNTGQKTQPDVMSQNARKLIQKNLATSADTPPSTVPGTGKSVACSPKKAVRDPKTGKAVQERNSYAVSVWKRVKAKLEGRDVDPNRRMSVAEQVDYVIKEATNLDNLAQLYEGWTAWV
# assay_details: hSMG-1 kinase assay (DELFIA)
# test_conditions: read-out: hSMG1 IC50
readout_type: pIC50
Convention used: pIC50 is expressed as -log10 of the molar concentration.

Completed entries (count: 5):
smiles_text: CC(=O)c1cccc(NC(=O)Nc2ccc(-c3nc(N4CCOCC4)c4ccc5c(ccn5C)c4n3)cc2)c1
target: human SMG-1 (hSMG-1) (Homo sapiens, UniProt Q96Q15)
pIC50: 4.98
//
smiles_text: Cn1ccc2c3nc(-c4ccc(NC(=O)NCCc5ccncc5)cc4)nc(N4CCOCC4)c3ccc21
target: human SMG-1 (hSMG-1) (Homo sapiens, UniProt Q96Q15)
pIC50: 5.48
//
smiles_text: CS(=O)(=O)n1ccc2c3nc(-c4ccc(NC(=O)Nc5ccccc5)cc4)nc(N4CCOCC4)c3ccc21
target: human SMG-1 (hSMG-1) (Homo sapiens, UniProt Q96Q15)
pIC50: 6.32
//
smiles_text: CCCNC(=O)Nc1cccc(-c2nc(N3CCOCC3)c3ccc4c(ccn4C)c3n2)c1
target: human SMG-1 (hSMG-1) (Homo sapiens, UniProt Q96Q15)
pIC50: 4.81
//
smiles_text: CS(=O)(=O)n1ccc2c3nc(-c4ccc(NC(=O)C5CC5)cc4)nc(N4CCOCC4)c3ccc21
target: human SMG-1 (hSMG-1) (Homo sapiens, UniProt Q96Q15)
pIC50: 5.25

Look at this compound and give its reported pIC50. Cn1ccc2c3nc(-c4cccc(NC(=O)Nc5ccncc5)c4)nc(N4CCOCC4)c3ccc21
5.19

Look at this compound and give its reported pIC50. COC(=O)Nc1ccc(-c2nc(N3CCOCC3)c3ccc4c(ccn4S(C)(=O)=O)c3n2)cc1
5.25

Look at this compound and give its reported pIC50. CC(=O)c1ccc(NC(=O)Nc2ccc(-c3nc(N4CCOCC4)c4ccc5c(ccn5C)c4n3)cc2)cc1
5.37

Look at this compound and give its reported pIC50. CNC(=O)Nc1ccc(-c2nc(N3CCOCC3)c3ccc4c(ccn4CCN(C)C)c3n2)cc1
6.31

* * *

# target: UniProtKB P42345
# assay_details: mTOR kinase assay (DELFIA format, purified enzyme)
# Format: biochemical
# Design: FLAG
# test_conditions: read-out: TOR Kinase IC50
readout_type: IC50 (µM)
Give the value in µM but do not write µM after it.

Completed entries (count: 4):
molecule: O=C(Nc1ccncc1)Nc1ccc(-c2nc(N3CCOCC3)c3ccc4c(ccn4S(=O)(=O)C4CCNCC4)c3n2)cc1 [Example 62]
measured_number: 0.028
//
molecule: O=C(Nc1ccncc1)Nc1ccc(-c2nc(N3CCOCC3)c3ccc4c(ccn4S(=O)(=O)C4CCN(C(=O)OCc5ccccc5)CC4)c3n2)cc1 [Example 61]
measured_number: 0.13
//
molecule: Cn1ccc2c3nc(-c4ccc(NC(=O)NC5CCS(=O)(=O)C5)cc4)nc(N4CCOCC4)c3ccc21 (stereo not shown) [Example 117]
measured_number: 0.6
//
molecule: Oc1cccc(-c2nc(N3CCOCC3)c3ccc4c(ccn4Cc4ccccc4)c3n2)c1 [Example 46]
measured_number: 0.42

Look at this molecule and give its reported IC50. Cn1ccc2c3nc(-c4cccc(NC(=O)C5CC5)c4)nc(N4CCOCC4)c3ccc21 [Example 125]
1.3

Look at this molecule and give its reported IC50. Cn1ccc2c3nc(-c4ccc(NC(=O)NCCCN5CCCC5)cc4)nc(N4CCOCC4)c3ccc21 [Example 104]
2.4

Look at this molecule and give its reported IC50. CCNC(=O)Nc1cccc(-c2nc(N3CCOCC3)c3ccc4c(ccn4C)c3n2)c1 [Example 128]
1.8

Data origin: patent US20090227575A1
